Cited source: paper PMC8148061

- measured.on: Bcr-Abl^T315I (Homo sapiens, UniProt P00519+P11274, T315I)
- assay.summary: Western blot degradation study in Ba/F3 cells expressed Bcr-Abl^T315I
- Assay type: cell-based
- conditions: 300 nmol/L, 24 h treatment, Western blot
readout.type: DR against Ba/F3 Bcr-Abl^T315I (%) 300 nmol/L
# number then unit; no other words

INPUT: Reported DR against Ba/F3 Bcr-Abl^T315I (%) 300 nmol/L for Cc1ccc(C(=O)Nc2ccc(CN3CCN(CCC(=O)Nc4cccc5c4C(=O)N(C4CCC(=O)NC4=O)C5=O)CC3)c(C(F)(F)F)c2)cc1C#Cc1cnc2[nH]ncc2c1 (centres unmarked) [7l] : what is it?
OUTPUT: 37.19%

INPUT: Any idea what its DR against Ba/F3 Bcr-Abl^T315I (%) 300 nmol/L is? The compound is Cc1ccc(C(=O)Nc2ccc(CN3CCN(CCCCCCCCCCC(=O)Nc4cccc5c4C(=O)N(C4CCC(=O)NC4=O)C5=O)CC3)c(C(F)(F)F)c2)cc1C#Cc1cnc2[nH]ncc2c1 (centres unmarked) [7q]
OUTPUT: 14.25%

INPUT: Query: DR against Ba/F3 Bcr-Abl^T315I (%) 300 nmol/L; subject: Cc1ccc(C(=O)Nc2ccc(CN3CCN(CCOCCOCCOCCOCCC(=O)Nc4cccc5c4C(=O)N(C4CCC(=O)NC4=O)C5=O)CC3)c(C(F)(F)F)c2)cc1C#Cc1cnc2[nH]ncc2c1 (centres unmarked) [7i]
OUTPUT: −19.45%

INPUT: Requested read-out: DR against Ba/F3 Bcr-Abl^T315I (%) 300 nmol/L. Entry: Cc1ccc(C(=O)Nc2ccc(CN3CCN(CCOCCOCCOCCC(=O)Nc4cccc5c4C(=O)N(C4CCC(=O)NC4=O)C5=O)CC3)c(C(F)(F)F)c2)cc1C#Cc1cnc2[nH]ncc2c1 (centres unmarked) [compound 7h]
OUTPUT: 78.34%

INPUT: May I ask what DR against Ba/F3 Bcr-Abl^T315I (%) 300 nmol/L has been recorded for Cc1ccc(C(=O)Nc2ccc(CN3CCN(CCOCCOCCC(=O)NC45CC6CC(CC(C6)C4)C5)CC3)c(C(F)(F)F)c2)cc1C#Cc1cnc2[nH]ncc2c1 [7f] ?
OUTPUT: 11.72%

INPUT: Which DR against Ba/F3 Bcr-Abl^T315I (%) 300 nmol/L reading was recorded for the compound Cc1ccc(C(=O)Nc2ccc(CN3CCN(CCOCCOCCC(=O)N[C@H](C(=O)C4C[C@H](O)C[C@H]4C(=O)NCc4ccc(-c5scnc5C)cc4)C(C)(C)C)CC3)c(C(F)(F)F)c2)cc1C#Cc1cnc2[nH]ncc2c1 (some centres unmarked) [7d] ?
OUTPUT: −10.51%

INPUT: Please report the recorded DR against Ba/F3 Bcr-Abl^T315I (%) 300 nmol/L for Cc1ccc(C(=O)Nc2ccc(CN3CCN(CCCCC(=O)Nc4cccc5c4C(=O)N(C4CCC(=O)NC4=O)C5=O)CC3)c(C(F)(F)F)c2)cc1C#Cc1cnc2[nH]ncc2c1 (centres unmarked) [7m] .
OUTPUT: 48.67%

INPUT: May I ask what DR against Ba/F3 Bcr-Abl^T315I (%) 300 nmol/L has been recorded for Cc1ccc(C(=O)Nc2ccc(CN3CCN(CCCCCC(=O)Nc4cccc5c4C(=O)N(C4CCC(=O)NC4=O)C5=O)CC3)c(C(F)(F)F)c2)cc1C#Cc1cnc2[nH]ncc2c1 (centres unmarked) [7n] ?
OUTPUT: 30.39%

INPUT: // lookup DR against Ba/F3 Bcr-Abl^T315I (%) 300 nmol/L for Cc1ccc(C(=O)Nc2ccc(CN3CCN(CCOCCOCCC(=O)Nc4cccc5c4C(=O)N(C4CCC(=O)NC4=O)C5=O)CC3)c(C(F)(F)F)c2)cc1C#Cc1cnc2[nH]ncc2c1 (centres unmarked) [compound 7a]
OUTPUT: 39.01%

INPUT: Need DR against Ba/F3 Bcr-Abl^T315I (%) 300 nmol/L of Cc1ccc(C(=O)Nc2ccc(CN3CCN(CCCCCCCCCCCCCCC(=O)Nc4cccc5c4C(=O)N(C4CCC(=O)NC4=O)C5=O)CC3)c(C(F)(F)F)c2)cc1C#Cc1cnc2[nH]ncc2c1 (centres unmarked) [7t] , thanks.
OUTPUT: 28.73%

INPUT: Dear colleague, I am looking for the recorded DR against Ba/F3 Bcr-Abl^T315I (%) 300 nmol/L of the following compound: Cc1ccc(C(=O)Nc2ccc(CN3CCN(CCCCCCC(=O)Nc4cccc5c4C(=O)N(C4CCC(=O)NC4=O)C5=O)CC3)c(C(F)(F)F)c2)cc1C#Cc1cnc2[nH]ncc2c1 (centres unmarked) [compound 7o]
OUTPUT: 94.23%
